Test system: Fusarium moniliforme A2284
Items are presented alongside their recorded MIC.
measurementLabel: MIC

- CN[C@@H]1[C@H](O[C@@H]2OC[C@@H](O)[C@H](O)[C@H]2O)[C@@H](O)[C@H](O[C@H]2c3cc(C)c(C(=O)N[C@H](C)C(=O)O)c(O)c3-c3c(cc4c(c3O)C(=O)c3cc(OC)cc(O)c3C4=O)[C@@H]2O)O[C@@H]1C [Pradimicin A, reference compound]: 3.1 µg/mL
- COc1cc(O)c2c(c1)C(=O)c1c(cc3c(c1O)-c1c(cc(C)c(C(=O)N[C@H](C)C(=O)O)c1O)[C@H](O[C@@H]1O[C@H](C)[C@H](N(C)C=O)[C@H](O[C@@H]4OC[C@@H](O)[C@H](O)[C@H]4O)[C@H]1O)[C@H]3O)C2=O: > 100 µg/mL
- COc1cc(O)c2c(c1)C(=O)c1c(cc3c(c1O)-c1c(cc(C)c(C(=O)N[C@H](C)C(=O)O)c1O)[C@H](O[C@@H]1O[C@H](C)[C@H](N(C)C(=O)CN)[C@H](O[C@@H]4OC[C@@H](O)[C@H](O)[C@H]4O)[C@H]1O)[C@H]3O)C2=O: > 100 µg/mL
- COc1cc(O)c2c(c1)C(=O)c1c(cc3c(c1O)-c1c(cc(C)c(C(=O)N[C@H](C)C(=O)O)c1O)[C@H](O[C@@H]1O[C@H](C)[C@H](N(C)CC(N)=O)[C@H](O[C@@H]4OC[C@@H](O)[C@H](O)[C@H]4O)[C@H]1O)[C@H]3O)C2=O: > 100 µg/mL

---

Assay: Water solubility, protocol I (PBS, HPLC)
Assay type: physicochemical
Conditions: Method I: PBS without CaCl₂ and MgCl₂.6H₂O
Kindly return yes if reported solubility is no lower than 500 µg/mL; return no if it is lower.

* CN[C@@H]1[C@H](O)[C@@H](O)[C@H](O[C@H]2c3cc(C)c(C(=O)N[C@H](C)C(=O)O)c(O)c3-c3c(cc4c(c3O)C(=O)c3cc(OC)cc(O)c3C4=O)[C@@H]2O)O[C@@H]1C [Pradimicin B, reference compound] | no
* CNC(=O)N(C)[C@@H]1[C@H](O)[C@@H](O)[C@H](O[C@H]2c3cc(C)c(C(=O)N[C@H](C)C(=O)O)c(O)c3-c3c(cc4c(c3O)C(=O)c3cc(OC)cc(O)c3C4=O)[C@@H]2O)O[C@@H]1C [Ex. 18, N-(N-methylcarbamoyl) pradimicin B] | yes
* CN[C@@H]1[C@H](O[C@@H]2OC[C@@H](O)[C@H](O)[C@H]2O)[C@@H](O)[C@H](O[C@H]2c3cc(C)c(C(=O)N[C@H](C)C(=O)O)c(O)c3-c3c(cc4c(c3O)C(=O)c3cc(OC)cc(O)c3C4=O)[C@@H]2O)O[C@@H]1C [Pradimicin A, reference compound] | no
* C=CCN(C)[C@@H]1[C@H](O[C@@H]2OC[C@@H](O)[C@H](O)[C@H]2O)[C@@H](O)[C@H](O[C@H]2c3cc(C)c(C(=O)N[C@H](C)C(=O)O)c(O)c3-c3c(cc4c(c3O)C(=O)c3cc(OC)cc(O)c3C4=O)[C@@H]2O)O[C@@H]1C [Ex. 22, N-(Allyl) pradimicin A] | yes
* COc1cc(O)c2c(c1)C(=O)c1c(cc3c(c1O)-c1c(cc(C)c(C(=O)N[C@H](C)C(=O)O)c1O)[C@H](O[C@@H]1O[C@H](C)[C@H](N(C)CC(=O)O)[C@H](O)[C@H]1O)[C@H]3O)C2=O [Ex. 4, N-carboxymethyl pradimicin B] | yes
* COc1cc(O)c2c(c1)C(=O)c1c(cc3c(c1O)-c1c(cc(C)c(C(=O)N[C@H](C)C(=O)O)c1O)[C@H](O[C@@H]1O[C@H](C)[C@H](N(C)CC(N)=O)[C@H](O)[C@H]1O)[C@H]3O)C2=O [Ex. 5, N-(carbamoylmethyl) pradimicin B] | yes
* COc1cc(O)c2c(c1)C(=O)c1c(cc3c(c1O)-c1c(cc(C)c(C(=O)N[C@H](C)C(=O)O)c1O)[C@H](O[C@@H]1O[C@H](C)[C@H](N(C)C(=O)CN(C)C)[C@H](O)[C@H]1O)[C@H]3O)C2=O [Ex. 15, N-(N,N-dimethylglycyl) pradimicin B] | yes
* CCOC(=O)CN(C)[C@@H]1[C@H](O)[C@@H](O)[C@H](O[C@H]2c3cc(C)c(C(=O)N[C@H](C)C(=O)O)c(O)c3-c3c(cc4c(c3O)C(=O)c3cc(OC)cc(O)c3C4=O)[C@@H]2O)O[C@@H]1C [Ex. 6, N-(ethoxycarbonylmethyl) pradimicin B] | yes
* C=CCN(C)[C@@H]1[C@H](O)[C@@H](O)[C@H](O[C@H]2c3cc(C)c(C(=O)N[C@H](C)C(=O)O)c(O)c3-c3c(cc4c(c3O)C(=O)c3cc(OC)cc(O)c3C4=O)[C@@H]2O)O[C@@H]1C [Ex. 21, N-(Allyl) pradimicin B] | yes
